Test: Phase 2A study (Magnolia) in women with postpartum depression: ganaxolone plasma concentrations / pharmacokinetics
Protocol conditions: female, human, plasma, intravenous, 200 μg/kg/hr, Mean average GNX Concentration, calculated for dose 200 μg/kg/hr; time 12 hr
Assay metric: concentration at 12 h (ng/mL)
I only need the number, in ng/mL, no unit after it.

Notebook: CC(=O)[C@H]1CC[C@H]2[C@@H]3CC[C@H]4C[C@](C)(O)CC[C@]4(C)[C@H]3CC[C@]12C [ganaxolone, 3α-hydroxy-3β-methyl-5α-pregnan-20-one] , concentration at 12 h read as 189

* * *

Test: Phase 2A study (Magnolia) in women with postpartum depression: ganaxolone plasma concentrations / pharmacokinetics
Protocol conditions: female, human, plasma, intravenous, 220 μg/kg/hr, Mean average GNX Concentration, calculated for dose 220 μg/kg/hr; time 24 hr
Assay metric: concentration at 24 h
Answer by giving the amount and then stating its unit.

Notebook: CC(=O)[C@H]1CC[C@H]2[C@@H]3CC[C@H]4C[C@](C)(O)CC[C@]4(C)[C@H]3CC[C@]12C [ganaxolone, 3α-hydroxy-3β-methyl-5α-pregnan-20-one] , concentration at 24 h read as 233 ng/mL

// provenance: patent US11266662B2
